These data points were gathered from paper PMC12406652.

Assay: Plasma pharmacokinetics after single ascending doses of LED-E (VNRX-7145-101 Part 1)
Format: in vivo
Details: human, oral, single dose LED-E 100 mg, geometric mean (CV %), read-out: Vz/F
property_name: Vd/F (L)

>>> value_observed("CCC(=O)N[C@H]1Cc2cccc(C(=O)OCOC(=O)C(CC)CC)c2OB1O [Ledaborbactam etzadroxil]")
2290

----------
Below is a list of entries, each paired with its recorded CL renal value.
Test: Urinary pharmacokinetics on Day 10 after multiple doses of LED-E q8h
Type: in vivo, human
Settings: human, urine, oral; multiple doses LED-E 150 mg q8h; geometric mean (geometric CV %)
property_name: CL renal (mL/min)

>>> value_observed("CCC(=O)N[C@H]1Cc2cccc(C(=O)OCOC(=O)C(CC)CC)c2OB1O")
0.247
>>> value_observed("CCC(=O)N[C@H]1Cc2cccc(C(=O)O)c2OB1O")
51.8

----------
Test: Plasma pharmacokinetics after single ascending doses of LED-E (VNRX-7145-101 Part 1)
Type: in vivo
Conditions: human, oral, single dose LED-E 100 mg, geometric mean (CV %)
Items are presented alongside their recorded Cmax.
property_name: Cmax (ng/mL)

>>> value_observed("CCC(=O)N[C@H]1Cc2cccc(C(=O)OCOC(=O)C(CC)CC)c2OB1O [Ledaborbactam etzadroxil]")
167
>>> value_observed("CCC(=O)N[C@H]1Cc2cccc(C(=O)O)c2OB1O [Ledaborbactam, ledaborbactam]")
4010

----------
Experiment: Plasma pharmacokinetics after single ascending doses of LED-E (VNRX-7145-101 Part 1)
Assay type: in vivo
Details: human, oral, across single doses LED-E 100 to 1,000 mg, read-out: Geometric mean t1/2
Method: Quantitation used separate weighted 1 /x^2 linear least-squares regression analyses generated from calibration standards. Exploratory screening for metabolites was performed for some samples. […] Single-dose plasma pharmacokinetic parameters were determined in Part 1, and both single-dose (Day 1) and multiple-dose ([…]) parameters were determined in Part 2. […]
property_name: half-life

>>> value_observed("CCC(=O)N[C@H]1Cc2cccc(C(=O)OCOC(=O)C(CC)CC)c2OB1O [Ledaborbactam etzadroxil]")
"2.8 to 4.7 h"

----------
Assay: Plasma pharmacokinetics on Day 10 after multiple doses of LED-E q8h (VNRX-7145-101 Part 2, VNRX-7145-102 Part 2)
Assay type: in vivo, human
Details: human, oral; Day 10, LED-E 300 mg q8h; plasma; geometric mean (CV %)
Listed next: entries and their corresponding Cmax.
property_name: Cmax (ng/mL)

>>> value_observed("CCC(=O)N[C@H]1Cc2cccc(C(=O)OCOC(=O)C(CC)CC)c2OB1O")
629
>>> value_observed("CCC(=O)N[C@H]1Cc2cccc(C(=O)O)c2OB1O")
11600

----------
Assay: Plasma pharmacokinetics on Day 10 after multiple doses of CTB + LED-E q8h (VNRX-7145-102 Part 3)
Settings: human, oral, AUCtau, Day 10, CTB 400 mg + LED-E 300 mg q8h, geometric mean (CV %)
property_name: AUC (ng·h/mL)

>>> value_observed("CCC(=O)N[C@H]1Cc2cccc(C(=O)OCOC(=O)C(CC)CC)c2OB1O")
463
>>> value_observed("CCC(=O)N[C@H]1Cc2cccc(C(=O)O)c2OB1O")
33300

----------
Test: Plasma pharmacokinetics after single ascending doses of LED-E (VNRX-7145-101 Part 1)
Type: in vivo
Details: human, oral, single dose LED-E 200 mg, median (range)
property_name: Tmax (min)

>>> value_observed("CCC(=O)N[C@H]1Cc2cccc(C(=O)OCOC(=O)C(CC)CC)c2OB1O")
30

----------
Assay: Plasma pharmacokinetics after single ascending doses of LED-E (VNRX-7145-101 Part 1)
Type: in vivo
Details: human, oral, single dose LED-E 300 mg, median (range)
property_name: Tmax

>>> value_observed("CCC(=O)N[C@H]1Cc2cccc(C(=O)OCOC(=O)C(CC)CC)c2OB1O")
"30 min"

----------
Experiment: Plasma pharmacokinetics on Day 10 after multiple doses of LED-E q8h (VNRX-7145-101 Part 2, VNRX-7145-102 Part 2)
Assay type: in vivo, human
Settings: human, oral; Day 10, LED-E 75 mg q8h; plasma; 0 to 8 h post-dose; geometric mean (CV %)
Entries and their AUC values follow.
property_name: AUC (ng·h/mL)

>>> value_observed("CCC(=O)N[C@H]1Cc2cccc(C(=O)O)c2OB1O")
13900
>>> value_observed("CCC(=O)N[C@H]1Cc2cccc(C(=O)OCOC(=O)C(CC)CC)c2OB1O")
85.5

----------
Assay: Plasma pharmacokinetics after single ascending doses of LED-E (VNRX-7145-101 Part 1)
Type: in vivo
Conditions: human, oral, single dose LED-E 300 mg, geometric mean (CV %), read-out: t1/2 (converted)
property_name: half-life (min)

>>> value_observed("CCC(=O)N[C@H]1Cc2cccc(C(=O)OCOC(=O)C(CC)CC)c2OB1O")
218
>>> value_observed("CCC(=O)N[C@H]1Cc2cccc(C(=O)O)c2OB1O")
449

----------
# reported AUC(0-inf); entries follow
Experiment: Plasma pharmacokinetics after single ascending doses of LED-E (VNRX-7145-101 Part 1)
Format: in vivo
Conditions: human, oral, 1000 mg, single dose LED-E 1,000 mg, geometric mean (CV %)
property_name: AUC(0-inf) (ng·h/mL)

>>> value_observed("CCC(=O)N[C@H]1Cc2cccc(C(=O)OCOC(=O)C(CC)CC)c2OB1O [Ledaborbactam etzadroxil]")
2300
>>> value_observed("CCC(=O)N[C@H]1Cc2cccc(C(=O)O)c2OB1O [Ledaborbactam, ledaborbactam]")
114000

----------
Experiment: Drug-drug interaction, single dose CTB 400 mg + LED-E 500 mg, cross-over (VNRX-7145-102 Part 1)
Settings: human, plasma, oral, 500 mg
property_name: Cmax (ng/mL)

>>> value_observed("CCC(=O)N[C@H]1Cc2cccc(C(=O)OCOC(=O)C(CC)CC)c2OB1O")
1040

----------
Test: Plasma pharmacokinetics on Day 10 after multiple doses of CTB + LED-E q8h (VNRX-7145-102 Part 3)
Details: human, oral, t1/2, Day 10, CTB 400 mg + LED-E 300 mg q8h, geometric mean (CV %)
property_name: half-life (h)

>>> value_observed("CCC(=O)N[C@H]1Cc2cccc(C(=O)OCOC(=O)C(CC)CC)c2OB1O")
7.68
>>> value_observed("CCC(=O)N[C@H]1Cc2cccc(C(=O)O)c2OB1O")
11.4
